- Test system: HCT-8 host cells (Hs18S)
- Measurement context: human, 41 h, 10 μM
Could you please mark Yes for values of Hs18S ΔCT below -0.07 and No for values at or above it?

Reference set, count: 8
Compound: COc1c2c(cc3occ(-c4ccc5c(c4)OCO5)c(=O)c13)OC(C)(C)C=C2
Qualitative label: Yes
--
Compound: CO[C@H]1[C@H](O)[C@@H](O)[C@H](O)[C@H](O)[C@H]1O
Qualitative label: Yes
--
Compound: C/C=C(\C)C(=O)O[C@H]1C[C@@H](OC(C)=O)[C@@]2(C(=O)OC)CO[C@H]3[C@@H](O)[C@@](C)([C@]45O[C@@]4(C)[C@H]4C[C@@H]5O[C@@H]5OC=C[C@@]54O)[C@H]4[C@]1(CO[C@]4(O)C(=O)OC)[C@@H]32
Qualitative label: No
--
Compound: CC(C)=CCC[C@@H](C)[C@H]1CC[C@@]2(C)C3=C(CC[C@]12C)[C@@]1(C)CC[C@H](O)C(C)(C)[C@@H]1CC3
Qualitative label: Yes
--
Compound: N[C@@H](C(=O)O)[C@@H](O)[C@H](O)[C@H](O)CO
Qualitative label: No
--
Compound: OC[C@H]1O[C@@H](OCCc2ccc(O)cc2)[C@H](O)[C@@H](O)[C@@H]1O [SALIDROSIDE]
Qualitative label: Yes
--
Compound: N[C@@H](CCC(=O)N[C@@H](CS)C(=O)NCC(=O)O)C(=O)O
Qualitative label: Yes
--
Compound: O=C(O)/C=C/c1ccc(O)c(O)c1
Qualitative label: Yes

Data request: Criterion: Hs18S ΔCT strictly below -0.07. Is it met by "CC(C)=CCc1c2c(c3occ(-c4ccc(O)cc4)c(=O)c3c1O)C=CC(C)(C)O2" ?
Data returned: Yes

Data request: Criterion: Hs18S ΔCT strictly below -0.07. Is it met by COc1cc(C2Oc3cc([C@H]4Oc5cc(O)cc(O)c5C(=O)[C@@H]4O)ccc3OC2CO)ccc1O (stereo partly shown) ?
Data returned: No

---

- Test system: HCT-8 host cells (Hs18S)
- Measurement context: human, 41 h, 10 μM
Reported Hs18S ΔCT values are given for each entry in this list.
I only need the number, thanks.

Molecule: CC[C@H](C)C(=O)O[C@H]1C[C@@H](C)C=C2C=C[C@H](C)[C@H](CC[C@@H]3C[C@@H](O)CC(=O)O3)[C@H]21 [Lovastatin, reference compound]
Metric: Hs18S ΔCT
Result number: 0.60
--
Molecule: COC(=O)C[C@H]1C(C)(C)[C@@H](OC(C)=O)[C@@H]2CC3=C4CC(=O)O[C@@H](c5ccoc5)[C@]4(C)CC[C@@H]3[C@@]1(C)C2=O [FISSINOLIDE]
Metric: Hs18S ΔCT
Result number: -0.81
--
Molecule: NC(Cn1ccc(=O)c(O)c1)C(=O)O (stereo not shown)
Metric: Hs18S ΔCT
Result number: -0.01
--
Molecule: O=C1C=C2CC3(O)COc4c(ccc(O)c4O)C3=C2C=C1O (stereo not shown)
Metric: Hs18S ΔCT
Result number: 0.13
--
Molecule: COc1cc(-c2coc3cc(O)c(OC)c(O)c3c2=O)cc(O)c1OC
Metric: Hs18S ΔCT
Result number: -0.43

Data request: Request the reported Hs18S ΔCT associated with "CC(C)c1c(O)ccc2c1CC[C@H]1C(C)(C)CCC[C@]21C"
Data returned: -0.36
